- measured-on: 5-HT1D (Bos taurus)
- protocol: 5-HT1D binding site affinity (tritiated serotonin; methodology of Heuring and Peroutka with minor modifications)
- assay-context: in vitro
Please respond with reported IC50 for every item in the list.
Reply numerically in µM, unit not repeated.

GET /values?readout=IC50&item= `COc1cncnc1N1CCN(CCCc2c[nH]c3ccc(OCc4ccccc4)cc23)CC1`
0.0143

GET /values?readout=IC50&item= CCS(=O)(=O)N(C)c1ccc2[nH]cc(CCCN3CCN(c4ncncc4OC)C(C)C3)c2c1 (centres unmarked)
0.0191

GET /values?readout=IC50&item= COc1cncnc1N1CCN(CCCc2c[nH]c3ccccc23)CC1C (centres unmarked)
0.0042

GET /values?readout=IC50&item= `COc1cncnc1N1CCN(CCCc2c[nH]c3c(F)cc(F)cc23)CC1`
0.0081

GET /values?readout=IC50&item= COc1cncnc1N1CCN(CCCc2c[nH]c3ccc(N(C)S(C)(=O)=O)cc23)CC1C (centres unmarked)
0.012

GET /values?readout=IC50&item= CCC(CCc1c[nH]c2ccccc12)N1CCN(c2ncncc2OC)CC1 (centres unmarked)
0.0205

GET /values?readout=IC50&item= `COc1cncnc1N1CCN(CCCc2c[nH]c3ccc(N(C)S(C)(=O)=O)cc23)CC1`
0.0049

GET /values?readout=IC50&item= `CCS(=O)(=O)Nc1ccc2[nH]cc(CCCN3CCN(c4ncncc4OC)CC3)c2c1`
0.0137

----------
- measured-on: 5-HT1D (Bos taurus, UniProt F1MGM3)
- Sequence (F1MGM3 1-403): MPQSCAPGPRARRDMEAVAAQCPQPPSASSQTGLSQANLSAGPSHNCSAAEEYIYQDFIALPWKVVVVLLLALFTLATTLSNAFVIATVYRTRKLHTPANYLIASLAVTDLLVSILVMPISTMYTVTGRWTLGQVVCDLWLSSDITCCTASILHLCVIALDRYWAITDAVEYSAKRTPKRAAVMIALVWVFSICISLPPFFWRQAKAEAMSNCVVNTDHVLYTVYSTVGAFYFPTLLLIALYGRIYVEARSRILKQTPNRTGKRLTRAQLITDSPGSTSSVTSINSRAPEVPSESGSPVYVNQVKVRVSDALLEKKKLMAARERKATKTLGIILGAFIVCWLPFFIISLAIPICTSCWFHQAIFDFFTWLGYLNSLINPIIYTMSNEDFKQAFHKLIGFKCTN
- protocol: 5-HT1D binding site affinity (tritiated serotonin; methodology of Heuring and Peroutka with minor modifications)
- assay-context: in vitro
Structures can show the parent of a compound that is named as a salt.
Please respond with reported pIC50 for every item in the list.
Value format note: pIC50 is -log10 of concentration (mol/L); just state the number.

GET /values?readout=pIC50&item= CCS(=O)(=O)N(C)c1ccc2[nH]cc(CCCN3CCN(c4ncncc4OC)CC3)c2c1 [Example 68]
7.89

GET /values?readout=pIC50&item= COc1cncnc1N1CCN(C(C)CCc2c[nH]c3ccccc23)CC1 (stereo not drawn) [Example 53]
8.30

GET /values?readout=pIC50&item= COc1cncnc1N1CCN(CCCc2c[nH]c3ccc(NS(C)(=O)=O)cc23)CC1 [Example 63]
8.28

GET /values?readout=pIC50&item= CCOc1cncnc1N1CCN(CCCc2c[nH]c3ccccc23)CC1 [Example 52, hydrochloride hydrate]
8.70

GET /values?readout=pIC50&item= COc1cncnc1N1CCN(CCCc2c[nH]c3ccccc23)CC1 [Example 61]
8.54

GET /values?readout=pIC50&item= COc1ccc2[nH]cc(CCCN3CCN(c4ncncc4OC)CC3)c2c1 [Example 73]
8.96

GET /values?readout=pIC50&item= COc1cncnc1N1CCN(CCCc2c[nH]c3cc(F)c(F)cc23)CC1 [Example 74]
7.54

GET /values?readout=pIC50&item= COc1cncnc1N1CCN(CCCc2c[nH]c3ccc(O)cc23)CC1 [Example 55]
9.10

GET /values?readout=pIC50&item= COc1cncnc1N1CCN(CCCc2c[nH]c3c(F)ccc(F)c23)CC1 [Example 75]
8.29

GET /values?readout=pIC50&item= CCOc1ccc2[nH]cc(CCCN3CCN(c4ncncc4OC)CC3)c2c1 [Example 71]
8.66

GET /values?readout=pIC50&item= CCS(=O)(=O)Nc1ccc2[nH]cc(CCCN3CCN(c4ncncc4OC)C(C)C3)c2c1 (stereo not drawn) [Example 70]
7.77

GET /values?readout=pIC50&item= COc1cncnc1N1CCN(CCCc2c[nH]c3ccc(F)cc23)CC1 [Example 60]
8.52
